Recorded Kb for the following compounds
Molecular target: GPR17 (Homo sapiens)
Sequence (Q13304 whole entry): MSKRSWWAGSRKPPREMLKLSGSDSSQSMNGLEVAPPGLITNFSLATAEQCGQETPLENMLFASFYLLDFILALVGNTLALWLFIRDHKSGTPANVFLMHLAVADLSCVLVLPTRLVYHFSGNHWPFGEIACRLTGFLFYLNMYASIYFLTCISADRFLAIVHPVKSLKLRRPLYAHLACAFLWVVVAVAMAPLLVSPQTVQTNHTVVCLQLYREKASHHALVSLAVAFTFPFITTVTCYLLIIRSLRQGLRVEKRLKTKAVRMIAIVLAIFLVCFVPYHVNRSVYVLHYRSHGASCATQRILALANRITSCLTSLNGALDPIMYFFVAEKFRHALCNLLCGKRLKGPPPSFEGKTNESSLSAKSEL
Assay: cAMP accumulation functional assay (HTRF, Schild analysis)
Assay type: cell-based
Design: host or cells: Flp-In T-REx CHO
Details: CHO hGPR17 cells, Schild analysis vs MDL29,951, 5 μM forskolin, read-out: cAMP assay pA2 (converted)
Endpoint label: Kb

O=S(=O)(Nc1nc(F)c(OCCF)cc1F)c1c[nH]c2cc(Cl)ccc12 [Compound I-364]
< 3.16 nM
COc1cc(CC#N)cnc1NS(=O)(=O)c1c[nH]c2cc(Cl)ccc12 [Compound I-194]
< 3.16 nM
O=S(=O)(Nc1ccc(Cl)cc1F)c1c[nH]c2c1ccc1cccnc12 [Compound I-65]
3.16 to 31.6 nM
N#Cc1ccc(NS(=O)(=O)c2c[nH]c3cc(N=[N+]=[N-])ccc23)c(F)c1 [Compound I-335]
3.16 to 31.6 nM
